system: Escherichia coli; test: Antibacterial activity against Escherichia coli expressing TolC mutant; type: functional
Would you mind telling me the reported MIC of each entry?
Enter your answer as a number in µg/mL; do not include the unit.

Can you look up MIC on Escherichia coli for O=C(Nc1ccc(-c2ccccc2)cc1C(=O)O)c1cccc(Oc2ccccc2)c1 ?
2

Can you look up MIC on Escherichia coli for O=C(Nc1ccc(F)cc1C(=O)O)c1cccc(Oc2ccccc2)c1 ?
5

Can you look up MIC on Escherichia coli for O=C(Nc1cc(Br)ccc1C(=O)O)c1cccc(Oc2ccccc2)c1 ?
3

Can you look up MIC on Escherichia coli for O=C(Nc1ccccc1C(=O)O)c1cccc(Oc2ccccc2)c1 ?
9

Can you look up MIC on Escherichia coli for O=C(Nc1ccc(Br)cc1C(=O)O)c1ccc(-c2ccccc2)cc1 ?
3

Can you look up MIC on Escherichia coli for O=C(Nc1cc(Cl)ccc1C(=O)O)c1cccc(Oc2ccccc2)c1 ?
3

Can you look up MIC on Escherichia coli for O=C(Nc1cc(C(F)(F)F)ccc1C(=O)O)c1ccc(-c2ccccc2)cc1 ?
5

Can you look up MIC on Escherichia coli for O=C(Nc1ccc(Br)cc1C(=O)O)c1cccc(Oc2ccccc2)c1 ?
3

Can you look up MIC on Escherichia coli for CCCC/C(C)=C/C=C(\C)C(=O)c1c(O)cc([C@H](C)CC/C=C/NC(=O)OC)oc1=O ?
1

Can you look up MIC on Escherichia coli for O=C(Nc1ccccc1C(=O)O)c1ccc(-c2ccccc2)c(Oc2ccccc2)c1 ?
13
